Reference for the values: PubChem BioAssay

- MEASUREMENT_DESCRIPTION: small-molecule binders of probe aInhba, primary screen, biochemical, small-molecule microarray, 635/667 nm fluorescence (AID 1148);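 further: score merges 667nm spot fluorescence with signal-to-noise for antibody binding to printed compounds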
- STATED_CONDITIONS: higher = more signal
composite z-score for assorted compounds

SMILES_RECORD	composite z-score
CC(CCC(=O)OC[C@H]1O[C@H](C#Cc2ccccc2)C=C[C@@H]1Oc1ccc(C)cc1)=NO[C@H](C)c1cn([C@H](CO)Cc2ccccc2)nn1	-0.149
CO[C@@H]1C=CCC(=O)N[C@@H](C)C(=O)OC[C@@H](OC)[C@H](C)CCCC(=O)OC[C@H]1C	-0.101
CCN1C(=O)[C@@H]2[C@H]3C(=CC[C@@H]2C1=O)C1(OCCCO1)[C@H]1O[C@H]1[C@H]3O	0.0513
CCCNC(=O)OC[C@H]1O[C@H](CCON=C(C)C)C=C[C@@H]1Oc1ccc(OC)cc1	-0.0791

----------
- TARGET_UNDER_TEST: NADPH oxidase 4 (Homo sapiens) (UniProt Q9NPH5)
- Sequence (Q9NPH5 whole entry, looked up): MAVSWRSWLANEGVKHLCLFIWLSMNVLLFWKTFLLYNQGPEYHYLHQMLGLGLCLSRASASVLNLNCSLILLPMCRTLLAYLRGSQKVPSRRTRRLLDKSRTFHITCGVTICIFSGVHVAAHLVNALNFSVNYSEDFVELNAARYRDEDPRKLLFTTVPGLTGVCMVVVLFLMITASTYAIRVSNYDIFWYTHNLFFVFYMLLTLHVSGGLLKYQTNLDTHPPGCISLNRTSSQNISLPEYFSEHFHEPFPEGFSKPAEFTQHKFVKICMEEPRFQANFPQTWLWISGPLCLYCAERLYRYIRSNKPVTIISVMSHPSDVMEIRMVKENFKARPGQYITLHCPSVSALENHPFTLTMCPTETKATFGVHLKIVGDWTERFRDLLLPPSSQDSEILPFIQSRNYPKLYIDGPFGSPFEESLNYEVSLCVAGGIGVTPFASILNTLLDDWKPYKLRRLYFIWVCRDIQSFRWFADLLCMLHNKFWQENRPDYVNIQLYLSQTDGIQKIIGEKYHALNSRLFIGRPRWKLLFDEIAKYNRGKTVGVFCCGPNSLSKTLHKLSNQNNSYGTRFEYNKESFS
- MEASUREMENT_DESCRIPTION: NOX4-dependent H2O2 signal modulators, primary screen, NOX inhibitor project, cell-based, HEK293-NOX4, tetracycline-induced, Amplex Red fluorescence (AID 1160)
- STATED_CONDITIONS: 45 min, higher = more signal, called active from +8 up or from −8 down
Active and inactive are the calls of the source.

SMILES_RECORD	TARGET_UNDER_TEST	z-score
COC(=O)CC=C[C@@H](C)[C@@H](C=NO[C@@H]1O[C@H](COC(C)=O)[C@@H](OC(C)=O)[C@H](OC(C)=O)[C@H]1OC(C)=O)NS(=O)(=O)c1ccc(C)cc1	NADPH oxidase 4 (Homo sapiens) (UniProt Q9NPH5)	0.968 (inactive)
O=C1C2=CC[C@H]3C(=O)N(c4cccc(Oc5ccccc5)c4)C(=O)[C@H]3[C@H]2[C@H](O)[C@@H]2O[C@H]12	NADPH oxidase 4 (Homo sapiens) (UniProt Q9NPH5)	0.605 (inactive)
CCCNC(=O)OC[C@H]1O[C@H](c2ccccc2)C=C[C@@H]1Oc1ccc(OC)cc1	NADPH oxidase 4 (Homo sapiens) (UniProt Q9NPH5)	-0.438 (inactive)
C#CCCCON=C1C[C@@H](O)[C@@H](O)[C@@H]2[C@@H]3C(=O)N(c4cccc(Oc5ccccc5)c4)C(=O)[C@@H]3CC[C@H]12	NADPH oxidase 4 (Homo sapiens) (UniProt Q9NPH5)	0.186 (inactive)

----------
- TARGET_UNDER_TEST: Calmodulin-1 (Homo sapiens)
- MEASUREMENT_DESCRIPTION: calcium-bound CALM1 binders on microarrays, profiling panel, artefact control for SMM control-protein annotation, biochemical, small-molecule microarray, Cy5-labelled CALM1, plus calcium (AID 1112);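 further: score merges spot fluorescence with signal to noise from triplicate slides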
- STATED_CONDITIONS: Cy5-CALM1 binding fluorescence, higher = more signal
composite z-score for assorted compounds

COMPOUND	composite z-score
CO[C@@H]1COC(=O)CC=C[C@@H](C)[C@H](OC)COC(=O)[C@@H](C)COC(=O)CC=C[C@H]1C	-1.59
COC(=O)[C@@H]1CC[C@H](C)[C@@H](c2ccc(C)cc2)N1C(=O)c1ccc(C=NO[C@H](C)c2cn([C@@H]3COC[C@H]3O)nn2)cc1	-0.361
CCCNC(=O)OC[C@H]1O[C@H](CCON=C(C)CCN2CCCc3nc(C)c(C)cc32)C=C[C@@H]1Oc1ccc(OC)cc1	0.241
O=C(NN=C1C[C@@H](O)[C@@H](O)[C@@H]2[C@@H]3C(=O)N(C[C@@H]4CCCO4)C(=O)[C@@H]3CC[C@@H]12)OCc1ccccc1	-1.51
CO[C@@H]1COC(=O)CC=C[C@H](C)[C@H](OC)COC(=O)[C@H](C)NC(=O)CC=C[C@H]1C	-2.34
C[C@H]1Cc2c(COc3ccccc3)nc3c(c2CO1)CN(CCOc1ccccc1)CC3	-0.255
CCOC(=O)[C@H](CC(C)C)NC(=O)CCC1CC(OC(=O)NCCc2ccc(F)cc2)CC2(CCCC(COC(=O)NCC3CCCCC3)O2)O1 (some centres not stated)	-0.622

----------
- TARGET_UNDER_TEST: Neurogenic locus notch homolog protein 2 (Homo sapiens)
- MEASUREMENT_DESCRIPTION: Notch2 binders on small-molecule microarrays, primary screen, biochemical, small-molecule microarray, 635 nm fluorescence, stem cell growth factors (AID 1073)
- STATED_CONDITIONS: Notch2 binding, higher = more signal
OBSERVABLE: composite z-score

COMPOUND	TARGET_UNDER_TEST	RECORDED_VALUE
COC(=O)[C@H](C)NC(=O)CCC1CC(OC(=O)NCCc2ccc(F)cc2)CC2(CCCC(COC(=O)NCc3cccc(C(F)(F)F)c3)O2)O1 (some centres undefined)	Neurogenic locus notch homolog protein 2 (Homo sapiens)	1.36
CSCC[C@@H]1NC(=O)CC=C[C@@H](C)COC(=O)[C@@H](C)COC1=O	Neurogenic locus notch homolog protein 2 (Homo sapiens)	-0.239
CCOC(=O)[C@H](CC(C)C)NC(=O)CCC1CC(OC(=O)NCc2cccc3ccccc23)CC2(CCCC(COC(=O)NCCc3ccc(Cl)cc3)O2)O1 (some centres undefined)	Neurogenic locus notch homolog protein 2 (Homo sapiens)	0.461
CCCNC(=O)OC[C@H]1O[C@H](CCON=C(C)C)C=C[C@@H]1Oc1ccc(OC)cc1	Neurogenic locus notch homolog protein 2 (Homo sapiens)	-0.482

----------
- MEASUREMENT_DESCRIPTION: A549 cell viability effects, profiling panel, calcein-AM fluorescence, 48 h, basal (AID 1162); further: test concentration not given here
- STATED_CONDITIONS: higher = more signal
Please note: Condition met applies when z-score is 0.1 or greater, and Condition not met applies otherwise.

COMPOUND	CLASS_ASSIGNMENT
CCc1cc2c(nc1CC)CCN(CCC(C)=NOC[C@H]1O[C@H](c3ccccc3)C=C[C@@H]1Oc1ccc(OC)cc1)C2	Condition not met
COC(=O)[C@H](C)NC(=O)CCC1CC(OC(=O)NCCc2ccc(F)cc2)CC2(CCCC(COC(=O)NCc3cccc(C(F)(F)F)c3)O2)O1 (some centres not stated)	Condition not met
CC(C)=NO[C@H](C)c1cn([C@H](CO)Cc2ccccc2)nn1	Condition met
CCOC(=O)NN=C1C[C@@H](O)[C@@H](O)[C@@H]2[C@@H]3C(=O)N(C(C)(C)C)C(=O)[C@@H]3CC[C@H]12	Condition met
CCN1C(=O)[C@H]2[C@H]3[C@H](O)[C@H](O)CC(=NOC[C@H]4O[C@H](c5ccccc5)C=C[C@@H]4Oc4ccc(OC)cc4)[C@@H]3CC[C@H]2C1=O	Condition met
CCOC(=O)NN=C1C[C@@H](O)[C@@H](O)[C@@H]2[C@@H]3C(=O)N(c4cccc(Oc5ccccc5)c4)C(=O)[C@@H]3CC[C@H]12	Condition met
CC(C)=CCCC(C)=CCON=C1C[C@@H](O)[C@@H](O)[C@@H]2[C@@H]3C(=O)N(Cc4ccccc4)C(=O)[C@@H]3CC[C@@H]12	Condition met

----------
- Tested on: Wnt5a (protein binding on small-molecule microarray)
- MEASUREMENT_DESCRIPTION: Wnt5a binders on small-molecule microarray, primary screen, biophysical, 635/667 nm fluorescence (AID 1142);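 further: fluorescence read at 667 nm with signal to noise per printed feature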
- STATED_CONDITIONS: 635 nm fluorescence, higher = more signal
composite z-score for assorted compounds
OBSERVABLE: composite z-score

COMPOUND	RECORDED_VALUE
COC(=O)CC=C[C@H](C)[C@@H](OCc1cccc(Br)c1)[C@@H](C)[C@H](OC)C1CCCCC1	-0.375
COc1ccc(COC(=O)NN=C2C[C@@H](O)[C@@H](O)[C@@H]3[C@@H]4C(=O)N(Cc5ccccc5)C(=O)[C@@H]4CC[C@H]23)cc1	-0.419
CC(C)=NOC[C@@H](C)[C@H](OCc1ccccc1)C(C)C	-0.437
Cc1ccc(S(=O)(=O)N[C@H]2COC(=O)CC=C[C@@H](C)COC(=O)CC=C[C@@H]2C)cc1	-0.0032
O=C1[C@H]2[C@H]3[C@H](O)[C@H](O)CC(=NO[C@@H]4O[C@H](CO)[C@@H](O)[C@H](O)[C@H]4O)[C@H]3CC[C@H]2C(=O)N1c1cccc(Oc2ccccc2)c1	0.162
Cc1ccc(S(=O)(=O)NC(CCc2ccccc2)CC(=O)C(C)(C)C)cc1 (stereo unspecified)	0.375
CO[C@H]1COC(=O)[C@@H]2CCCN2C(=O)CC=C[C@@H](C)[C@H](OC)COC(=O)[C@@H](OCc2ccccc2)C=C[C@@H]1C	-0.0628
CC(CCN1CCCc2nc(C)c(C)cc21)=NO[C@@H](C)c1cc(-c2c(C)cc(C)cc2C)no1	0.0353
CC(=O)OC[C@H]1O[C@@H](ON=C(C)CCN2CCCc3nc(C)c(C)cc32)[C@H](OC(C)=O)[C@@H](OC(C)=O)[C@@H]1OC(C)=O	0.237
CCOC(=O)[C@H](CC(C)C)NC(=O)CCC1CC(OC(=O)NCCc2ccc(F)cc2)CC2(CCCC(COC(=O)NCCOc3ccccc3)O2)O1 (stereo partly specified)	0.32
C=CC[C@@H]1C=C[C@H](ON=C[C@@H](C)[C@H](OCc2ccccc2)C(C)C)[C@@H](CO)O1	-0.2
CO[C@@H]1COC(=O)CC=C[C@@H](C)[C@@H]2C=C[C@H](O)[C@@H](COC(=O)CC=C[C@H]1C)O2	-0.186
O=C(C=Cc1ccc2c(c1)OCO2)c1ccc(F)cc1	0.239
CCOC(=O)[C@H](Cc1ccccc1)NC(=O)CCC1CC(OC(=O)NCCc2ccc(F)cc2)CC2(CCCC(COC(=O)NCCCN3CCCC3=O)O2)O1 (stereo partly specified)	0.126
CO[C@H]1COC(=O)CC=C[C@@H](C)[C@H](NS(=O)(=O)c2ccc(C)cc2)COC(=O)CCC[C@@H]1C	0.118
COC(=O)[C@H]1O[C@@H](c2c(OC)c(OC)c(C)c(OC)c2OC)[C@H](C)[C@@H](O)[C@H]1C	0.2
